Cited source: the supplement of paper PMC9170038

Overview of reported apparent KD of MS2 coat protein across a group of sequences:
Tested on: MS2 coat protein
Test Details: apparent KD of MS2 coat protein; designed switch direction (-1 OFF switch, 1 ON switch): 1; higher = weaker reporter binding
Assay Context: Eterna round: R95; input ligand: FMN 200 uM
Note: unit nM is implicit; provide only the numeric part.

residue_string="AAAAGUUGCGGGCAGGAUAUGUAUUAAAAUACAUGAGGAUCACCCAUGUGCGGGUAUAACACCCGACAGAAGGGCCAAACGCGAC [Mat - Same State 2 - Mod of UCT - D96] (puzzle: Same State 2)" result_number=27.4
residue_string="GUUAAACAUGAGGAUCACCCAUGUCAAUGUAGUCGAGGAUAUGGGCAGCUAUGAGGCGUACUAGAAGGCGAAGAGG [Mat - Same State 1 - Mod of JL - D11] (puzzle: Same State 1)" result_number=121

Lab note: measured apparent KD of MS2 coat protein of CGGGUACAUGAGGAUCACCCAUGUGGGAGGGAUGCAGGAUAUGUGGGAGGAGGGUAUGAAACAGAAGGGCAAGGAG [JR_SS!_Sub012] (puzzle: Same State 1) was 46.7

###

Overview of reported apparent KD of MS2 coat protein across a group of sequences:
Test system: MS2 coat protein
Test Details: apparent KD of MS2 coat protein; designed switch direction (-1 OFF switch, 1 ON switch): 1; higher = weaker reporter binding
Assay Context: input ligand: microRNA oligo, concentration not stated
Note: unit nM is implicit; provide only the numeric part.

residue_string="UGGCUCAGACGAGGAUAUGAUCAUGGCGCUUCGGCGCAUACAUGAGGAUCACCCAUGUAGGGUGAUCAGAAGGCGUCUGAGCCA [SSNG2/8-A2] (Eterna round: R96, puzzle: Same State NG 2)" assayed_target="MS2 coat protein" unit_name=nM result_number=413

Lab note: measured apparent KD of MS2 coat protein of UUGUUUUGAAAUUUACAUGAGGAUCACCCAUGUCGUGAGACAGAGGAUAUACAGGAAUGUAGGUAGUAGAAGGCUGUUUUGUGU [JR_SSNG3_Sub100] (Eterna round: R96, puzzle: Same State NG 3) was 97.6

Lab note: measured apparent KD of MS2 coat protein of AUGAAGAAUUAAGGAUAUUGAUUACAUAUGUUUAACAUGAGGAUCACCCAUGUGGGUUGCGGUAUCGAGAAGGUAAAAUAAAAG [Mat - same State NG 2 - JL mod - D89] (Eterna round: R96, puzzle: Same State NG 2) was 193

Lab note: measured apparent KD of MS2 coat protein of UGGUAACAUGAGGAUCACCCAUGUCAAAUGAAUCGAGGAUAUGGGAAUUAACAACACAAACUAGAAGGCGAAUUUG [Altered State 1-8 - Jieux - Same State 1] (Eterna round: R96, puzzle: Same State 1) was 151

###

Tested on: MS2 coat protein
Test Details: apparent KD of MS2 coat protein; higher = weaker reporter binding
Assay Context: Eterna round: R107; input ligand: theophylline 2 mM
Parameter: apparent KD of MS2 coat protein (nM)
Note: unit nM is implicit; provide only the numeric part.

Examples with their reported apparent KD of MS2 coat protein follow.
residue_string="UGGGUACAUGAGGAUCACCCAUGUACUGAAGGAGCGAGAAAUAUCUCAGGUAGGUCGCAGACAUGAGGAUCACCCAUGUAGUAGG [Exclusion Arginine A GF 11]" parameter="apparent KD of MS2 coat protein" result_number=33.1
residue_string="AGACUGUCUUCGGACAGUCCGGACAGCCCGCGAGGACCGGUACGGCCGCCACUCGCACGAGGAUCACCCGUGUGAGGCUGUCCGA [Omei Tryp A Exc A v2]" parameter="apparent KD of MS2 coat protein" result_number=16.4
residue_string="AUAACAGUGUCGGCCGCCACUAGAACACAUGAGGAUCACCCAUGUGGUGGUACCUCCUAAGACGAUAGGACCGGGACCCAUCUAC [theeternabot_exclusion_MS2_Trp_B_12]" parameter="apparent KD of MS2 coat protein" result_number=143
residue_string="UAGUUGUAGUCGGCCGCCACUGUGAGCAUGGUUAACAUGAGGAUCACCCAUGUCCCGUACUAUAACAGGACCGGGACGUAGUUGC [#10 Same State - Tryptophan B]" parameter="apparent KD of MS2 coat protein" result_number=134
residue_string="AUACAUGAGGAUCACCCAUGUCAUUCAGAAGGAGCGUCAUUUUAGACAGGUAGGUCGCUGAUAGUAUUUUUAUACUUUAUGUUUA [JR_SSArginiA_Sub015]" parameter="apparent KD of MS2 coat protein" result_number=23.3

Lab note: measured apparent KD of MS2 coat protein of CCUAUGCAGUCGGCCGCCACUGAAAACAGCCUCAAAAUAAAUAUAACAUGAGGAUCACCCAUGUACAGGACCGGGACUGUAUAGG [Ex Tryptophan B 11] was 180

Lab note: measured apparent KD of MS2 coat protein of AUUAUCGUAGGUUAAAGUUUAGAAACUGAAGGAGCGUGGUAUUACACAGGUAGGUCGCAGAUUUUACAUGAGGAUCACCCAUGUU [JR_ExcArginiA_Sub010] was 25.1

Lab note: measured apparent KD of MS2 coat protein of AACAUGAGGAUCACCCAUGUCCUCGUGAUUCGAGGACCGGUACGGCCGCCACUCGGUCCUCGCGAGGAGGAGUCAAAGACUCCAA [Omei Trp A SS A v1] was 204

Lab note: measured apparent KD of MS2 coat protein of UUUGAUUAGAGAAGGAGCGUGAUAUUUAUAUAGUGUGUAUGUACAUGAGGAUCACCCAUGUCACAGGUAGGUCGCUCUGAUAAGG [JR_Nu_ExcArginiB_Sub030] was 13.2

Lab note: measured apparent KD of MS2 coat protein of UAUAUAUAACAUGAGGAUCACCCAUGUAAACGAGGACCGGUACGGCCGCCACUCGGCCGGCAAGGGAGAGGACGGGAAACCGUCG [ETA NP+V+V2 #26] was 23

Lab note: measured apparent KD of MS2 coat protein of GGGCAAGAGGGAAGGAGCGUCAGCUGAGUCACAUGAGGAUCACCCAUGUAGCACAUAGUGUGACAGGUAGGUCGCCCUCUGCCCU [SS-ArgB5] was 11.4
